System Tested: proMMP13(1-268) (SEQ ID NO:7) (Homo sapiens)
Method Summary: ThermoFluor binding assay with proMMP13(1-268)
Cond: pH 7.0
Measurement Label: Kd (µM)

(1) CC(=O)Nc1nc(C)c(-c2csc(Nc3cc(C(N)=O)ccc3Cl)n2)s1
(2) CNC(=O)c1ccc(OC)c(Nc2nc(-c3sc(NC(C)=O)nc3C)cs2)c1
(3) CCOC(=O)c1nc(C)c(-c2csc(Nc3cc(C(N)=O)ccc3OC(C)C)n2)s1
(4) Cc1nc(C(=O)N2CCCN(C)CC2)sc1-c1csc(Nc2cc(C(N)=O)ccc2OC(C)C)n1
Q) Please list the entries, largest Kd first. State the ranking by listing the labels in the requested order.
A) 1, 2, 3, 4

----------
System Tested: proMMP9(20-445;ΔFnII) (SEQ ID NO:6) (Homo sapiens, UniProt P14780, DEL216-390)
Construct: start methionine (N)
Method Summary: ThermoFluor binding assay with proMMP9(20-445;ΔFnII)
Cond: pH 7.0
Measurement Label: Kd (µM)

Observe how each entry below is paired with its result.
>  <Compound String>
Cc1nc(CN(C)CCN(C)C)sc1-c1csc(Nc2cc(C(N)=O)ccc2OC(C)C)n1

>  <Val>
0.97

$$$$
>  <Compound String>
Cc1nc(N)sc1-c1csc(Nc2cc(C(N)=O)ccc2OC(C)C)n1

>  <Val>
0.021

$$$$
>  <Compound String>
Cc1nc(C)c(-c2csc(Nc3cc(C(=O)O)ccc3OC(C)C)n2)s1

>  <Val>
0.57

$$$$
>  <Compound String>
CCOc1ccc(C(N)=O)cc1Nc1nc(-c2sc(C(=O)N3CCN(C)CC3)nc2C)cs1

>  <Val>
2.8

$$$$
>  <Compound String>
Cc1nc(C)c(-c2nc(Nc3cc(C(N)=O)ccc3OC(C)C)sc2Br)s1

>  <Val>
1.2

$$$$

(A) Cc1nc(C)c(-c2nc(Nc3cc(C(N)=O)ccc3OC(C)C)sc2C)s1
(B) COc1ccc(-c2ccccc2)cc1Nc1nc(-c2sc(N)nc2C)cs1
(C) COc1ccc(-c2ccc(C(C)=O)s2)cc1Nc1nc(-c2sc(C)nc2C)cs1
(D) Cc1nc(C(=O)N2CCC(N(C)C)CC2)sc1-c1csc(Nc2cc(C(N)=O)ccc2OC(C)C)n1
(E) COc1ccc(N)cc1Nc1nc(-c2sc(NC(C)=O)nc2C)cs1
Q) Hi! Can you put these in order of Kd, lowest number first? State the ranking by listing the labels in the requested order.
A) D, A, E, B, C

----------
System Tested: proMMP9(67-444;ΔFnII) (SEQ ID NO:5) (Homo sapiens, UniProt P14780, DEL216-390)
Construct: start methionine (N)
Method Summary: ThermoFluor binding assay with proMMP9(67-444;ΔFnII)
Cond: pH 7.0
Measurement Label: Kd (nM)

Observe how each entry below is paired with its result.
>  <Compound String>
Cc1nc(C)c(-c2nc(Nc3cc(S(N)(=O)=O)ccc3OC(C)C)sc2F)s1

>  <Kd (nM)>
670

$$$$
>  <Compound String>
CCN(CC)S(=O)(=O)c1ccc(OC)c(Nc2nc(-c3sc(N)nc3C)cs2)c1

>  <Kd (nM)>
2900

$$$$
>  <Compound String>
COc1cc(Nc2nc(-c3sc(C)nc3C)cs2)c2ncccc2c1

>  <Kd (nM)>
61000

$$$$
>  <Compound String>
CCOc1ccc(C(N)=O)cc1Nc1nc(-c2sc(C(=O)NC3CCN(C(C)C)CC3)nc2C)cs1

>  <Kd (nM)>
670

$$$$
>  <Compound String>
COc1ccc(C(=O)O)cc1Nc1nc(-c2sc(N)nc2C)cs1

>  <Kd (nM)>
1700

$$$$
>  <Compound String>
COc1ccc(C(N)=O)cc1Nc1nc(-c2cnc(N)s2)cs1

>  <Kd (nM)>
2800

$$$$

(P) COc1ccc(N)cc1Nc1nc(-c2sc(NC(C)=O)nc2C)cs1
(Q) COc1ccc(C(N)=O)cc1Nc1nc(-c2sc(N3CCN(C)CC3)nc2C)cs1
Q) Could you tell me which of these two has the smaller Kd figure? First: P Second: Q Give the label of your selection.
A) P

----------
System Tested: full-length proMMP9(1-707) (SEQ ID NO:1) (Homo sapiens, UniProt P14780, R574P)
Construct: made in house; host or cells: HEK293 (proMMP9, secreted); E. coli (MMP3)
Method Summary: proMMP9/MMP3 P126 Activation Assay
Type: biochemical
Cond: 20 nM proMMP9, 20 nM MMP3, 80 min 37° C.
Measurement Label: IC50 (µM)

Observe how each entry below is paired with its result.
>  <Molecule>
Cc1nc(C(=O)N2CCCN(C(C)C)CC2)sc1-c1csc(Nc2cc(C(N)=O)ccc2OC(C)C)n1 [Example 112]

>  <Display Unit>
µM

>  <IC50>
0.52

$$$$
>  <Molecule>
CCOc1ccc(C(N)=O)cc1Nc1nc(-c2sc(C(=O)N3CCCN(C)CC3)nc2C)cs1 [Example 119]

>  <Display Unit>
µM

>  <IC50>
0.52

$$$$
>  <Molecule>
CCOc1ccc(C(N)=O)cc1Nc1nc(-c2sc(C(=O)NC3CCN(C)CC3)nc2C)cs1 [Example 121]

>  <Display Unit>
µM

>  <IC50>
0.37

$$$$

(P) COc1ccc([N+](=O)[O-])cc1Nc1nc(-c2sc(N)nc2C)cs1 [Example 67]
(Q) CCC(C)Oc1ccc(C(N)=O)cc1Nc1nc(-c2sc(C)nc2C)cs1 (racemic) [Example 14]
(R) COc1ccc(-c2cn[nH]c2)cc1Nc1nc(-c2sc(C)nc2C)cs1 [Example 138]
(S) Cc1nc(C(=O)N2CCN(C)CC2)sc1-c1csc(Nc2cc(C(N)=O)ccc2OC(C)C)n1 [Example 101]
Q) Hi! Can you put these in order of IC50, lowest number first? State the ranking by listing the labels in the requested order.
A) S, P, R, Q

----------
System Tested: proMMP9(67-444;ΔFnII) (SEQ ID NO:5) (Homo sapiens, UniProt P14780, DEL216-390)
Construct: start methionine (N)
Method Summary: ThermoFluor binding assay with proMMP9(67-444;ΔFnII)
Cond: pH 7.0
pKd: −log10 of the molar value.
Measurement Label: pKd

Observe how each entry below is paired with its result.
>  <Compound String>
COc1c(F)cc(C(N)=O)cc1Nc1nc(-c2sc(C)nc2C)cs1

>  <pKd>
4.92

$$$$
>  <Compound String>
CCOc1ccc(C(N)=O)cc1Nc1nc(-c2sc(C(=O)N3CCCN(C(C)C)CC3)nc2C)cs1

>  <pKd>
5.85

$$$$
>  <Compound String>
Cc1nc(N)sc1-c1csc(Nc2cc(C#N)ccc2OC(C)C)n1

>  <pKd>
7.02

$$$$

(1) CC(C)Oc1ccc(C(N)=O)cc1Nc1nc(-c2sc(N)nc2C(F)(F)F)cs1
(2) CC(=O)Nc1nc(C)c(-c2csc(Nc3cc(C(N)=O)ccc3Cl)n2)s1
(3) COc1ccc(-c2cn[nH]c2)cc1Nc1nc(-c2sc(C)nc2C)cs1
Q) Hi! Can you put these in order of pKd, lowest number first? State the ranking by listing the labels in the requested order.
A) 2, 1, 3

----------
System Tested: proMMP9(67-444;ΔFnII) (SEQ ID NO:5) (Homo sapiens, UniProt P14780, DEL216-390)
Construct: start methionine (N); made in house; host or cells: E. coli BL21(DE3) RIL
Sequence (P14780 with tags, fused parts or gaps DEL216-390): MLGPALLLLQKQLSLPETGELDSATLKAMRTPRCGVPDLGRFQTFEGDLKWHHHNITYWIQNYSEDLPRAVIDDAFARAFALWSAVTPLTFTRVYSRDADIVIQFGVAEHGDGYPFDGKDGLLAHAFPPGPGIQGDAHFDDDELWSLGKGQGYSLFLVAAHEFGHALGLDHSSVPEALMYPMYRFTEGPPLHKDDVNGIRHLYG
Method Summary: ThermoFluor binding assay with proMMP9(67-444;ΔFnII)
Cond: pH 7.0
Experimental: The ThermoFluor® (TF) assay is a 384-well plate-based binding assay that measures thermal stability of proteins (Biomol Screen 2001, 6, 429-40; Biochemistry 2005, 44, 5258-66). The experiments were carried out using instruments available from Johnson & Johnson Pharmaceutical Research & Development, LLC. TF dye used in all experiments was […] (1,8-ANS) (Invitrogen: A-47). […]
Measurement Label: Kd (µM)

Observe how each entry below is paired with its result.
>  <Compound String>
COc1ccc(-c2cncn2C)cc1Nc1nc(-c2sc(C)nc2C)cs1

>  <Val>
16

$$$$
>  <Compound String>
Cc1nc(CN2CCN(C)CC2)sc1-c1csc(Nc2cc(C(N)=O)ccc2OC(C)C)n1

>  <Val>
3.3

$$$$

(A) Cc1nc(C)c(-c2csc(Nc3cc(C(=O)O)ccc3OC(C)C)n2)s1
(B) COc1ccc([N+](=O)[O-])cc1Nc1nc(-c2sc(N)nc2C)cs1
Q) Could you tell me which of these two has the smaller Kd figure? First: A Second: B Give the label of your selection.
A) B
(B: 0.087 µM, A: 0.78 µM)

The values you see were collected from patent US20120129842A1.
